Cited source: ChEMBL document CHEMBL3588842

Below, each entry is listed with its recorded IC50.
Test system: HT-29
Test: cells
Details: Homo sapiens, HT-29, 72 h
Measured Property: IC50 (µM)

>>> quantitative_result("O=C(O)c1ccc2nc(-c3ccc(Cl)cc3)c(-c3ccc(Cl)cc3)nc2c1")
41
>>> quantitative_result("COc1c(C[C@H](C)O)c2c3c(C[C@H](C)O)c(OC)c(=O)c4c(O)cc5c(c6c(cc(O)c(c1=O)c62)OCO5)c43")
1.8
>>> quantitative_result("COc1ccc(/C=C2/SC(=S)N(CCCC(=O)O)C2=O)cc1OC")
290
